Sourced from paper PMC4649089

- targetUnderTest: alaRS (Escherichia coli, UniProt P00957, G675D)
- Construct: full length, 875 residues, N-terminal His tag (pET28a), expressed in E. coli BL21(DE3), homodimer, 192500 Da
- Sequence (P00957 2-876 G675D): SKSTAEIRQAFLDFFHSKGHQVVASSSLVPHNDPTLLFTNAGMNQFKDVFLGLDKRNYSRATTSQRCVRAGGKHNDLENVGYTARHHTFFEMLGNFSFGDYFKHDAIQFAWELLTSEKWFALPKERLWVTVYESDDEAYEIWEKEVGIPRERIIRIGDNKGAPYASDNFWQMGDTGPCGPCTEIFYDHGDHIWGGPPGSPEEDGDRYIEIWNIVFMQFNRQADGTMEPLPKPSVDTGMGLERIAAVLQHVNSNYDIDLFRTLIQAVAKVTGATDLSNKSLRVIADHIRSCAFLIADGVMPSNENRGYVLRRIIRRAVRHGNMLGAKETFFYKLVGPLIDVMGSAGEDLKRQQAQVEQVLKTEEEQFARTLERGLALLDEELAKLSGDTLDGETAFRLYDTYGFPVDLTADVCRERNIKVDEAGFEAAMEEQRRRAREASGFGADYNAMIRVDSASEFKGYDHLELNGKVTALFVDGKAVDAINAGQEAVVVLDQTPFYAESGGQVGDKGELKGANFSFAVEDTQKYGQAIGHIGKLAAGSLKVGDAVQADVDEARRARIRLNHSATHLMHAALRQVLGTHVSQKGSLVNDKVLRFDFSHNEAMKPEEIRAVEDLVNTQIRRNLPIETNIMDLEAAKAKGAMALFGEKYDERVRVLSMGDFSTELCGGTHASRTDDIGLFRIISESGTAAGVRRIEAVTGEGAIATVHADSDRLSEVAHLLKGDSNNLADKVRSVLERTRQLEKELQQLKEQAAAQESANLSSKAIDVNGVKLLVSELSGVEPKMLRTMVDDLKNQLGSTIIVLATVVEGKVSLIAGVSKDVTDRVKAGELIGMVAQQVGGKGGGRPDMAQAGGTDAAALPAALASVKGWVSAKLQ
- protocolSummary: ANS fluorescence titration
- testSettings: read-out: dissociation constant
reportedProperty: Kd

Can you share its Kd? I mean this compound: O=S(=O)(O)c1cccc2cccc(Nc3ccccc3)c12
1000 to 5000 nM

====

- targetUnderTest: WT-alaRS (Escherichia coli, UniProt P00957)
- Construct: gene alaS; full length, 875 residues, N-terminal His tag (pET28a), expressed in E. coli BL21(DE3), homodimer, 192500 Da
- Sequence (P00957 2-876): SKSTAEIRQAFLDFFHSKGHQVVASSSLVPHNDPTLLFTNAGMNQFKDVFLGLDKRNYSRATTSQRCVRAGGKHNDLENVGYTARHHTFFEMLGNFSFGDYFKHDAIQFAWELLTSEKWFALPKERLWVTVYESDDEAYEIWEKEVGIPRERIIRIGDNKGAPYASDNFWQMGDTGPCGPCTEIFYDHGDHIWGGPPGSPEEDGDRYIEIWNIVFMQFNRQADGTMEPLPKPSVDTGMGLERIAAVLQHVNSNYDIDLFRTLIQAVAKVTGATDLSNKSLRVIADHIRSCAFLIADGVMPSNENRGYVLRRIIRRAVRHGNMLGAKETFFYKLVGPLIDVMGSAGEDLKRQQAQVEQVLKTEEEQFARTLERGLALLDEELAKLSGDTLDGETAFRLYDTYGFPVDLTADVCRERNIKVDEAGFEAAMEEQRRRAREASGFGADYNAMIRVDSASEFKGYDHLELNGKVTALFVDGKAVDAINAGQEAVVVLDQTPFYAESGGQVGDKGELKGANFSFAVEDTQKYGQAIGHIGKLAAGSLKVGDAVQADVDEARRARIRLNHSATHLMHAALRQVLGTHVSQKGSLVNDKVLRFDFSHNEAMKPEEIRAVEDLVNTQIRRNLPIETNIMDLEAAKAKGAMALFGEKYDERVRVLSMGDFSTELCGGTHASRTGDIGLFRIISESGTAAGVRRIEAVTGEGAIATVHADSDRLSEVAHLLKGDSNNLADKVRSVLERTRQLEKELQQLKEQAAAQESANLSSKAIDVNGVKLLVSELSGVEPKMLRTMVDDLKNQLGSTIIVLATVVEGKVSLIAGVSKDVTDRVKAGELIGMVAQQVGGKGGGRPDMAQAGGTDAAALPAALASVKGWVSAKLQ
- protocolSummary: ANS fluorescence titration
- Assay type: binding
- testSettings: read-out: dissociation constant
pKd: −log10 of the molar value.
reportedProperty: pKd

Request body: readout pKd, system WT-alaRS (Escherichia coli, UniProt P00957), query O=S(=O)(O)c1cccc2cccc(Nc3ccccc3)c12 . Return the value.
5.30 to 6.00
